test system: MDA-MB-231 multicell spheroids, viability (%T/C); assay: Anticancer human tumor MDA-MB-231 cell line growth inhibition [IpAb]; settings: second compound 0.316 µM; first compound 0.316 µM; hits give low values;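 also: viability read after seven days of drug exposure; 100% = DMSO vehicle control viability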
compounds and their reported viability, T/C
Write the value in % as a bare number.

Worked cases, answers included:
{"Compound": "Cn1ncc(Cl)c1-c1cc(C(=O)NC(CN)Cc2cccc(F)c2)sc1Cl (centres undefined) + CCN1CCN(Cc2ccc(Nc3ncc(F)c(-c4cc(F)c5nc(C)n(C(C)C)c5c4)n3)nc2)CC1", "Unit abbrev": "%", "Recorded result": 32.9}
{"Compound": "Cn1nccc1Nc1nccc(-c2ccn(C(CO)c3ccc(Cl)c(F)c3)c(=O)c2)n1 (centres undefined) + CC(C)NCC(C(=O)N1CCN(c2ncnc3c2C(C)CC3O)CC1)c1ccc(Cl)cc1", "Unit abbrev": "%", "Recorded result": 38.1}

Write down the reported viability, T/C (system: MDA-MB-231 multicell spheroids, viability (%T/C)) of CC1(C)CCC(CN2CCN(c3ccc(C(=O)NS(=O)(=O)c4ccc(NCC5CCOCC5)c([N+](=O)[O-])c4)c(Oc4cnc5[nH]ccc5c4)c3)CC2)=C(c2ccc(Cl)cc2)C1 + CC(C)NCC(C(=O)N1CCN(c2ncnc3c2C(C)CC3O)CC1)c1ccc(Cl)cc1
93.7

Write down the reported viability, T/C (system: MDA-MB-231 multicell spheroids, viability (%T/C)) of Cn1nccc1Nc1nccc(-c2ccn(C(CO)c3ccc(Cl)c(F)c3)c(=O)c2)n1 (centres undefined) + CCN1CCN(Cc2ccc(Nc3ncc(F)c(-c4cc(F)c5nc(C)n(C(C)C)c5c4)n3)nc2)CC1
20.7
